A collection of compounds and their measured %Inh
# System: ABL1-nonphosphorylated;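 also: KINOMEscan kinase panel screen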
# Condition Info: concentration: 1 μM, replicates: in singlicate; n = 1
Write the number in % without appending the unit.

Answered cases to consult:
compound=Cl.O=C(Nc1cccc(-c2nn3ncccc3c2-c2ccnc(Nc3cccnc3)n2)c1)c1c(F)cccc1F measured=0
compound=Cc1ccc(NC(=O)Nc2cccc(Cl)c2)cc1-c1ccc(C(=O)Nc2ccncc2)cc1 measured=0

So what %Inh did CN1C(=O)C(Nc2ccc(Cl)c(C(=O)O)c2)=C(c2ccc(Cl)cc2)C1=O get with ABL1-nonphosphorylated?
21

What would you report for O=C(Nc1n[nH]c2cc(-c3cccc(F)c3F)ccc12)C1CC1 ?
45

Query COc1cccc(-c2cc(-c3c[nH]nc3-c3ccccn3)ccn2)c1 next
0

Do the same for Cc1c(Cn2ccn3c(=O)cc(N4CCOCC4)nc23)cccc1C(F)(F)F please
0

Query O=S(=O)(c1ccc(-c2ccnc3[nH]ccc23)cc1)N1CCCC1 next
0

Further, for COc1ccc(C2=C(Nc3cccc(C(=O)O)c3)C(=O)NC2=O)cc1 ?
35

Next entry: COc1cc(Nc2nccc(N3CCC(NC(=O)Nc4cc(C)ccc4C)C3)n2)cc(OC)c1OC (stereo not shown)
0

Quick one: NC(=O)c1nnc2ccccc2c1N
25

Also COc1ccccc1-c1ccc2c(NC(=O)C3CC3)n[nH]c2n1 , if possible.
0

Another: Cc1ccc(-c2cc(-c3c[nH]nc3-c3ccccn3)ccn2)cc1
35

What about this compound? Cc1ccc(C(=O)Nc2ccc(Nc3ccnc4cc(-c5ccccn5)ccc34)cc2O)cc1.Cl
68

Please give the result for Cc1ccc(NC(=O)Nc2cc(C(C)(C)C)nn2-c2ccccc2)cc1 too.
0

Next compound: COc1ccc(Nc2nccc(-c3cccc(NC(=O)c4cc5cc(F)ccc5[nH]4)c3)n2)cc1
85

Moving on to the next compound: CS(=O)(=O)c1ccc(-c2nc3n(c2-c2ccncc2)CCC3)cc1
0
